protein stability index values for the variants below.
B1: CLPTM1 (parent)
chain: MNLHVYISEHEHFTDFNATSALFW

Variants of: B1
Experiment: protein stability index of a GFP-peptide fusion (GPS, HEK-293T) (PSI 1-6); higher = more stable;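 note: lentivirally expressed fusions sorted by FACS into six bins by GFP to DsRed ratio, PSI derived from sequencing read proportions per bin multiplied by bin number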
Settings: c terminus: a fixed tail appended
OBSERVATION TYPE: protein stability index

>  <SEQUENCE CHANGE>
E9L

>  <NUMERIC VALUE>
1.96

$$$$
>  <SEQUENCE CHANGE>
L3I

>  <NUMERIC VALUE>
3.08

$$$$
>  <SEQUENCE CHANGE>
H12Q

>  <NUMERIC VALUE>
1.98

$$$$
